Below: a set of entries, each annotated with reported Kd.
# measured-target: T1, human interleukin-23 receptor (IL23R) (human, UniProt Q5VWK5 24-355, limits assumed)
# T1 construct: also called human IL23R
# T1 sequence (looked up): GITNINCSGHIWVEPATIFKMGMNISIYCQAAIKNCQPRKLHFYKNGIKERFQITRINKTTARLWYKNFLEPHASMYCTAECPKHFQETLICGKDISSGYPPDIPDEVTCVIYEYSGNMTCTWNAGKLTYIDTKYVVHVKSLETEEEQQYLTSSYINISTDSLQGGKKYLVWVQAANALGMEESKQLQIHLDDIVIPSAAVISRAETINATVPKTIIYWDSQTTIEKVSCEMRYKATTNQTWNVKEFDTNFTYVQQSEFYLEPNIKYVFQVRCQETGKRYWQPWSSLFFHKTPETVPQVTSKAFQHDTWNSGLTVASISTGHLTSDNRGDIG
# protocol-text: SPR, scFv (summary table)
measured-parameter: Kd (pM)

{"binder": "Vκ2/VH3 consensus λ-capped, human IL23R specific scFv (scFv, scFv VL-linker-VH, made in E. coli; also called Vκ2VH3 capped) scFv: DIVMTQSPLSLPVTPGEPASISCQASENIYSFLAWYLQKPGQSPQLLIYSASKLAAGVPDRFSGSGSGTDFTLKISRVEAEDVGVYYCQQTNRYSNPDIYNVFGGGTKLTVLGGGGGSGGGGSGGGGSGGGGSEVQLVESGGGLVQPGGSLRLSCAASGIDFNSNYYMCWVRQAPGKGLEWVSCIYVGSHVNTYYANWAKGRFTISRDNSKNTLYLQMNSLRAEDTAVYYCATSGSSVLYFKFWGQGTLVTVSS", "readout-units": "pM", "assay-value": 39.7}
{"binder": "Vκ2/VH6 consensus λ-capped, human IL23R specific scFv (scFv, scFv VL-linker-VH, made in E. coli; also called Vκ2VH6 capped) scFv: DIVMTQSPLSLPVTPGEPASISCQASENIYSFLAWYLQKPGQSPQLLIYSASKLAAGVPDRFSGSGSGTDFTLKISRVEAEDVGVYYCQQTNRYSNPDIYNVFGGGTKLTVLGGGGGSGGGGSGGGGSGGGGSQVQLQQSGPGLVKPSQTLSLTCAISGIDFNSNYYMCWIRQSPGRGLEWLGCIYVGSHVNTYYANWAKGRITINPDTSKNQFSLQLNSVTPEDTAVYYCATSGSSVLYFKFWGQGTLVTVSS", "readout-units": "pM", "assay-value": 887}
{"binder": "Vκ2/VH3 consensus (uncapped), human IL23R specific scFv (scFv, scFv VL-linker-VH, made in E. coli; Vκ framework IV (uncapped, full consensus); also called Vκ2VH3 uncapped) scFv: DIVMTQSPLSLPVTPGEPASISCQASENIYSFLAWYLQKPGQSPQLLIYSASKLAAGVPDRFSGSGSGTDFTLKISRVEAEDVGVYYCQQTNRYSNPDIYNVFGQGTKVEIKRGGGGSGGGGSGGGGSGGGGSEVQLVESGGGLVQPGGSLRLSCAASGIDFNSNYYMCWVRQAPGKGLEWVSCIYVGSHVNTYYANWAKGRFTISRDNSKNTLYLQMNSLRAEDTAVYYCATSGSSVLYFKFWGQGTLVTVSS", "readout-units": "pM", "assay-value": 23.6}

Recorded values, source patent US20230242651A1.
